Entries annotated with measured fraction ligated
B1: F1*; the commonest letter at each place (parent)
chain: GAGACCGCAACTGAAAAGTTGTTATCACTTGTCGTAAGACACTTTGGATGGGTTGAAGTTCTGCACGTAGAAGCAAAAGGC

variants of: B1; test: fraction ligated after 30 min (ligated reads / total reads); higher = more ligase activity; conditions: with F1*sub RNA substrate (template-directed ligation), 42 °C
Give a plain numeric answer without units written out.

G50T G55C: 0.143
A37T T49A: 0.802
T29A G55T: 0.788
T23A T43G: 0.81
C40T A57T: 0.798

Lab note: A41T T45A gave fraction ligated of 0.741

Lab note: G31T A48C gave fraction ligated of 0.292

Lab note: C40G C42G gave fraction ligated of 0.826

Lab note: T23C A56G gave fraction ligated of 0.698

Lab note: A36G A39T gave fraction ligated of 0.815

Lab note: `G52T` gave fraction ligated of 0.695

Lab note: G55C A56T A57G gave fraction ligated of 0.0294

Lab note: T35A G50A gave fraction ligated of 0.638

Lab note: C26G G34C gave fraction ligated of 0.371

Lab note: G34T T35C gave fraction ligated of 0.81

Lab note: C42A G55T gave fraction ligated of 0.814

Lab note: T25A G34A gave fraction ligated of 0.724

Lab note: T32G T45C gave fraction ligated of 0.346

Lab note: G50T A56T gave fraction ligated of 0.0827
